B1: TMEM120A (parent)
chain: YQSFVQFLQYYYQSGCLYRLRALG

Variants of: B1
Method summary: protein stability index of a GFP-peptide fusion (GPS, HEK-293T) (PSI 1-6); higher = more stable;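 also: lentivirally expressed fusions sorted by FACS into six bins by GFP to DsRed ratio, PSI derived from sequencing read proportions per bin multiplied by bin number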
Condition summary: c terminus: a fixed tail appended
# label = bin(measured protein stability index), where bins are lo: < 2; mid: ≥ 2 and < 3; hi: ≥ 3

Please review the following examples before continuing.
{"columns": ["Variant", "Classification"],
 "data": [
  ["L23C", "hi"],
  ["A22H", "hi"],
  ["F7T", "mid"],
  ["L8E", "lo"],
  ["V5F", "mid"],
  ["L8H", "lo"],
  ["R19W", "hi"],
  ["Q6F", "lo"]
]}

**Query** Which class does "Y11S" fall in?
**Result** hi

**Query** Exercise: read the entry "Q13N" and state which class it falls under.
**Result** mid

**Query** Note: place this variant into its band. Item: "R19S"
**Result** hi

**Query** Which class is correct for the following variant? "R19K"
**Result** hi

**Query** Kindly state the category for this variant: "L17D"
**Result** hi

**Query** State the band of "Q13H"
**Result** mid

**Query** GET /class?item= "S3V"
**Result** hi

**Query** GET /class?item= "Y18P"
**Result** mid

**Query** # classify by protein stability index band: "Y18T"
**Result** lo

**Query** Which class holds "F7D" ?
**Result** lo

**Query** Which bin should I file "F4V" under?
**Result** hi

**Query** Category of "L23F" :
**Result** lo

**Query** Class (by measured protein stability index) for "Q2R"
**Result** lo
